Test system: MCF10A
Assay: perturbation Mahalanobis distance of morphological profile vs DMSO controls (Mahalanobis distance (SD units)); higher = stronger morphological change, active = 7 or more
Settings: screen batch: Batch1_Mahalanobis_Distance; 72 h
Would you mind answering with one of these outcomes? active, inactive

Write down the call the test reported for this compound. Item: CC1(C)C[C@@H]1C(=O)N/C(=C\CCCCSC[C@H](N)C(=O)O)C(=O)O [Cilastatin] (153.4 µM)
inactive

Write down the call the test reported for this compound. Item: Cc1nnc(C(=O)NC(C)(C)C2=N/C(=C(\O)NCc3ccc(F)cc3)C(=O)C(=O)N2C)o1 [Raltegravir] (22.5 µM)
inactive

Write down the call the test reported for this compound. Item: CC(=O)O.C[C@H](N)C(=O)O.NCCCC[C@H](N)C(=O)O.N[C@@H](CCC(=O)O)C(=O)O.N[C@@H](Cc1ccc(O)cc1)C(=O)O [Glatiramer Acetate] (50 µM)
inactive

Write down the call the test reported for this compound. Item: Nc1ccn([C@H]2CC[C@@H](CO)O2)c(=O)n1 [Zalcitabine] (2.4 µM)
inactive

Write down the call the test reported for this compound. Item: CNS(=O)(=O)Cc1ccc2[nH]cc(CCN(C)C)c2c1 [Sumatriptan] (1 µM)
inactive

Write down the call the test reported for this compound. Item: O=C1Nc2ccc(Cl)cc2[C@@](C#CC2CC2)(C(F)(F)F)O1 [Efavirenz] (28.8 µM)
inactive

Write down the call the test reported for this compound. Item: Nc1nc(N)c2nc(-c3ccccc3)c(N)nc2n1 [Triamterene] (2 µM)
inactive

Write down the call the test reported for this compound. Item: Cc1ccc(Nc2nccc(N(C)c3ccc4c(C)n(C)nc4c3)n2)cc1S(N)(=O)=O [Pazopanib] (132.6 µM)
inactive

Write down the call the test reported for this compound. Item: Cn1nnc2c(C(N)=O)ncn2c1=O [Temozolomide] (70.6 µM)
inactive

Write down the call the test reported for this compound. Item: CCN(CC)CCCC(C)Nc1ccnc2cc(Cl)ccc12 (stereo not given) [Chloroquine] (4.7 µM)
inactive

Write down the call the test reported for this compound. Item: NNC(=O)c1ccncc1 [Isoniazid] (73.5 µM)
inactive

Write down the call the test reported for this compound. Item: CN(C)[C@@H]1C(O)=C(C(N)=O)C(=O)[C@@]2(O)C(O)=C3C(=O)c4c(O)cccc4[C@@](C)(O)[C@H]3C[C@@H]12 [Tetracycline] (45 µM)
inactive

Write down the call the test reported for this compound. Item: Nc1nc(Cl)nc2c1ncn2[C@@H]1O[C@H](CO)[C@@H](O)[C@@H]1F [Clofarabine] (7.5 µM)
active

Write down the call the test reported for this compound. Item: C=CC[C@@H]1/C=C(\C)C[C@H](C)C[C@H](OC)[C@H]2O[C@@](O)(C(=O)C(=O)N3CCCC[C@H]3C(=O)O[C@H](/C(C)=C/[C@@H]3CC[C@@H](O)[C@H](OC)C3)[C@H](C)[C@@H](O)CC1=O)[C@H](C)C[C@@H]2OC [Tacrolimus] (0.09 µM)
inactive

Write down the call the test reported for this compound. Item: Nc1ccc(O)c(C(=O)O)c1 [Mesalazine] (39.2 µM)
inactive

###

Test system: MCF10A
Experiment: perturbation Mahalanobis distance of morphological profile vs DMSO controls (Mahalanobis distance (SD units)); higher = stronger morphological change, active = 7 or more
Conditions: screen batch: Batch1_Mahalanobis_Distance; 72 h
The label depends only on perturbation Mahalanobis distance: yes if it is at least 3, no if it is smaller.

Does the compound CC(C)NCC(O)c1ccc(O)c(O)c1 (stereo not given) [Isoproterenol] (11.8 µM) have recorded perturbation Mahalanobis distance that is 3 or more?
yes

Does the compound OCCN1C[C@H](O)[C@@H](O)[C@H](O)[C@H]1CO [Miglitol] (45.4 µM) have recorded perturbation Mahalanobis distance that is 3 or more?
no

Does the compound C1CNCCN1 [Piperazine Hexahydrate] (5.8 µM) have recorded perturbation Mahalanobis distance that is 3 or more?
no

Does the compound Cc1ccc(NC(=O)c2ccc(CN3CCN(C)CC3)cc2)cc1Nc1nccc(-c2cccnc2)n1 [Imatinib] (14 µM) have recorded perturbation Mahalanobis distance that is 3 or more?
yes

Does the compound CN1C[C@H]2c3ccccc3Oc3ccc(Cl)cc3[C@@H]2C1 [Asenapine] (0.07 µM) have recorded perturbation Mahalanobis distance that is 3 or more?
no

###

Tested on: MCF10A
Assay: perturbation Mahalanobis distance of morphological profile vs DMSO controls (Mahalanobis distance (SD units)); higher = stronger morphological change, active = 7 or more
Conditions: screen batch: Batch1_Mahalanobis_Distance; 72 h
Please provide measured perturbation Mahalanobis distance for the entries that follow.
Could you respond with only the numeric value?

Return reported perturbation Mahalanobis distance. Input compound: O=[N+]([O-])c1cnc(CO)n1CCO [Hydroxymetronidazole] (58.4 µM)
2.36

Return reported perturbation Mahalanobis distance. Input compound: NC(=O)c1ncn([C@@H]2O[C@H](CO)[C@@H](O)[C@H]2O)n1 [Ribavirin] (75.3 µM)
5.79

Return reported perturbation Mahalanobis distance. Input compound: O=C(CCCCCCC(=O)Nc1ccccc1)NO [Vorinostat] (9.8 µM)
11

Return reported perturbation Mahalanobis distance. Input compound: CC(C)C1CCC(C(=O)N[C@H](Cc2ccccc2)C(=O)O)CC1 (stereo partly specified) [Nateglinide] (66.1 µM)
2.59

Return reported perturbation Mahalanobis distance. Input compound: O=c1ncnc2[nH][nH]cc1-2 [Allopurinol] (139.6 µM)
2.93

Return reported perturbation Mahalanobis distance. Input compound: COCCCOc1cc(C[C@@H](C[C@H](N)[C@@H](O)C[C@H](C(=O)NCC(C)(C)C(N)=O)C(C)C)C(C)C)ccc1OC [Aliskiren] (2.5 µM)
2.96

Return reported perturbation Mahalanobis distance. Input compound: O=NN(CCCl)C(=O)NCCCl [Carmustine] (0.2 µM)
2.08

Return reported perturbation Mahalanobis distance. Input compound: O=C1CCc2ccc(OCCCCN3CCN(c4cccc(Cl)c4Cl)CC3)cc2N1 [Aripiprazole] (3.3 µM)
2.24

Return reported perturbation Mahalanobis distance. Input compound: O=C1OCCN1/N=C/c1ccc([N+](=O)[O-])o1 [Furazolidone] (22.2 µM)
3.46

Return reported perturbation Mahalanobis distance. Input compound: CC/C(=C(\c1ccc(O)cc1)c1ccc(OCCNC)cc1)c1ccccc1 [Endoxifen] (6.75 µM)
2.6

Return reported perturbation Mahalanobis distance. Input compound: C#C[C@]1(O)CC[C@H]2[C@@H]3CCC4=CC(=O)CC[C@@H]4[C@H]3CC[C@@]21CC [Levonorgestrel] (0.24 µM)
3.22

Return reported perturbation Mahalanobis distance. Input compound: O=C1CCC(N2C(=O)c3ccccc3C2=O)C(=O)N1 (stereo unspecified) [Thalidomide] (19.4 µM)
2.34

Return reported perturbation Mahalanobis distance. Input compound: CNNCc1ccc(C(=O)NC(C)C)cc1 [Procarbazine] (13.6 µM)
2.07

Return reported perturbation Mahalanobis distance. Input compound: CC(=O)S[C@@H]1CC2=CC(=O)CC[C@]2(C)[C@H]2CC[C@@]3(C)[C@@H](CC[C@@]34CCC(=O)O4)[C@H]12 [Spironolactone] (3 µM)
3.75

Return reported perturbation Mahalanobis distance. Input compound: COc1ccccc1Oc1c(NS(=O)(=O)c2ccc(C(C)(C)C)cc2)nc(-c2ncccn2)nc1OCCO [Bosentan] (33.6 µM)
3.04

Return reported perturbation Mahalanobis distance. Input compound: CCCc1nc(C(C)(C)O)c(C(=O)OCc2oc(=O)oc2C)n1Cc1ccc(-c2ccccc2-c2nn[nH]n2)cc1 [Olmesartan Medoxomil] (8.1 µM)
2.22

###

Test system: MCF10A
Assay: perturbation Mahalanobis distance of morphological profile vs DMSO controls (Mahalanobis distance (SD units)); higher = stronger morphological change, active = 7 or more
Settings: screen batch: Batch2_Mahalanobis_Distance; 72 h
Counter-ions that a name gives are not always drawn.
The label depends only on perturbation Mahalanobis distance: Y if it is at least 3, N if it is smaller.

Does the molecule CCCCNc1cc(C(=O)O)cc(S(N)(=O)=O)c1Oc1ccccc1 [Bumetanide] (1 µM) have recorded perturbation Mahalanobis distance that is 3 or more?
N

Does the molecule Nc1cc(N2CCCCC2)nc(N)[n+]1OS(=O)(=O)[O-] [Minoxidil Sulfate] (4.3 µM) have recorded perturbation Mahalanobis distance that is 3 or more?
Y

Does the molecule C[C@]12C=CC(=O)C=C1CC[C@@H]1[C@@H]2[C@@H](O)C[C@@]2(C)[C@H]1CC[C@]2(O)C(=O)CO [Prednisolone] (13.9 µM) have recorded perturbation Mahalanobis distance that is 3 or more?
Y

Does the molecule CC(C)(C#N)c1cc(Cn2cncn2)cc(C(C)(C)C#N)c1 [Anastrozole] (0.51 µM) have recorded perturbation Mahalanobis distance that is 3 or more?
Y

Does the molecule CCC(=O)NCC[C@@H]1CCc2ccc3c(c21)CCO3 [Ramelteon] (0.13 µM) have recorded perturbation Mahalanobis distance that is 3 or more?
N

Does the molecule CCN(CC)CCCC(C)Nc1ccnc2cc(Cl)ccc12 (stereo unspecified) [Chloroquine] (4.7 µM) have recorded perturbation Mahalanobis distance that is 3 or more?
N

Does the molecule CCn1cc(C(=O)O)c(=O)c2cc(F)c(N3CCNCC3)nc21 [Enoxacin] (62.4 µM) have recorded perturbation Mahalanobis distance that is 3 or more?
Y

Does the molecule COc1cccc2c1C(=O)c1c(O)c3c(c(O)c1C2=O)C[C@@](O)(C(=O)CO)C[C@@H]3O[C@H]1C[C@H](N)[C@H](O)[C@H](C)O1 [Doxorubicin] (0.18 µM) have recorded perturbation Mahalanobis distance that is 3 or more?
Y

Does the molecule CCOC(=O)C1=C[C@@H](OC(CC)CC)[C@H](NC(C)=O)[C@@H](N)C1 [Oseltamivir] (1 µM) have recorded perturbation Mahalanobis distance that is 3 or more?
N

Does the molecule NS(=O)(=O)c1cc(Cl)c(Cl)c(S(N)(=O)=O)c1 [Dichlorphenamide] (214.8 µM) have recorded perturbation Mahalanobis distance that is 3 or more?
Y

Does the molecule Cn1nnc2c(C(N)=O)ncn2c1=O [Temozolomide] (70.6 µM) have recorded perturbation Mahalanobis distance that is 3 or more?
N

Does the molecule CCN(CC)C(=O)/C(C#N)=C/c1cc(O)c(O)c([N+](=O)[O-])c1 [Entacapone] (6.6 µM) have recorded perturbation Mahalanobis distance that is 3 or more?
N

Source: the supplement of paper PMC6853941
